# System: RARb homodimer (NR concentration 270 nM)
# Measurement Protocol: PBM binding z-score (relative to random genomic background probes); higher = stronger binding; sequences stand for … in GC…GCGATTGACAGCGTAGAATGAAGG
Threshold check on PBM binding z-score: at or above 1 gives T, strictly below gives F.

Request: Reported PBM binding z-score at or above 1? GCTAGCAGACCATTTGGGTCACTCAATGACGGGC
Response: T

Request: In plain terms: is recorded PBM binding z-score at least 1 for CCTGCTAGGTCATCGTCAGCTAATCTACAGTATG ?
Response: T

Request: Could you tell me if the measured PBM binding z-score of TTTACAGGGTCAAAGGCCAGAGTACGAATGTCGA reaches 1 or more?
Response: T

Request: Quick check: does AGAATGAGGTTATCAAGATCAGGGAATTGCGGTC have PBM binding z-score greater than or equal to 1?
Response: T

Request: Record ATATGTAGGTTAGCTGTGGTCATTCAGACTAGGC ; criterion: PBM binding z-score no lower than 1. Met?
Response: T

Request: Could you please find out whether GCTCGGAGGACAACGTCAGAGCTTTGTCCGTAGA has PBM binding z-score that meets 1 or exceeds it?
Response: F

Request: Exam item: decide whether the reported PBM binding z-score for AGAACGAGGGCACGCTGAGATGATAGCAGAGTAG is at least 1.
Response: T

Request: Reported PBM binding z-score at or above 1? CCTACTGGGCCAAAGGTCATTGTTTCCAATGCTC
Response: T

Request: Item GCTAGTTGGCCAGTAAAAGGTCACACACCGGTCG with PBM binding z-score of 1 or above?
Response: T

Request: Could you verify whether the entry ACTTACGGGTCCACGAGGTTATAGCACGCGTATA shows PBM binding z-score of no less than 1?
Response: T

Request: Decide: PBM binding z-score of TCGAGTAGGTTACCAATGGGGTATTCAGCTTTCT >= 1?
Response: F

Request: Record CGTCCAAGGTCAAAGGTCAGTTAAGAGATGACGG ; criterion: PBM binding z-score no lower than 1. Met?
Response: T

Request: Please check the record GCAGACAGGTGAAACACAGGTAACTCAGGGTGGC and state if its PBM binding z-score is at or above 1.
Response: F
